Attribution: ChEMBL document CHEMBL5325437

Target: UniProt:P29323
Sequence (P29323 whole entry, the tested form may be a part): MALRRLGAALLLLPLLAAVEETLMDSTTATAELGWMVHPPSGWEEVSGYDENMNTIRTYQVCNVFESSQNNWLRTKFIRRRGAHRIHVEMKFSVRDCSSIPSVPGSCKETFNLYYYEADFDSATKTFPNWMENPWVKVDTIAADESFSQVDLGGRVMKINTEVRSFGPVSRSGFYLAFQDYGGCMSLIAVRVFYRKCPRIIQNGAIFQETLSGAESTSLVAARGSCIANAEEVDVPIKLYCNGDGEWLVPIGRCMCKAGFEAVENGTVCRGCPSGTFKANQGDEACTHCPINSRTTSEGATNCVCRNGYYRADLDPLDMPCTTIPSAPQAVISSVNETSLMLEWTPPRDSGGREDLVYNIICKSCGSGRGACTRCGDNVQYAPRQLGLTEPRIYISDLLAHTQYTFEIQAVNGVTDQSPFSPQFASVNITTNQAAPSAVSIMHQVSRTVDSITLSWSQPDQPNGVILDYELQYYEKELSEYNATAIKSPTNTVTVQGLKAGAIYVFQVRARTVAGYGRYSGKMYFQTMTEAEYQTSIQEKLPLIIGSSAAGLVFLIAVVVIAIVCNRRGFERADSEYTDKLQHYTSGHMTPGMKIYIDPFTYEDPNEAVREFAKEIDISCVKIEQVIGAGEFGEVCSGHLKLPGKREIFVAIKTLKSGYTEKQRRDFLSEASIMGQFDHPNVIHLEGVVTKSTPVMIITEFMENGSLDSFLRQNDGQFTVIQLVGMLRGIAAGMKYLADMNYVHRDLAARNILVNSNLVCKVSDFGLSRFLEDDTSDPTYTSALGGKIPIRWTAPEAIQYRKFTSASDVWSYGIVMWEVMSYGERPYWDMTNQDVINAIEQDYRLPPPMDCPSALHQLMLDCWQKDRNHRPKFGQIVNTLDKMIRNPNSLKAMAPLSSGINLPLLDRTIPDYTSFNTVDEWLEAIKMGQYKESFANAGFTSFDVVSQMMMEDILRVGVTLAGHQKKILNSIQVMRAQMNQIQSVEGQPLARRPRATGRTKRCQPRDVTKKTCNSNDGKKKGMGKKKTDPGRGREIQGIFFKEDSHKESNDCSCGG
Test: Inhibition of full length NanoLuc fused EPHB2 (unknown origin) transfected in HEK293T cells using NanoBRET NanoGlo substrate incubated for 2 hrs in presence of tracer by NanoBRET assay
assay-endpoint: pIC50
Numbers only, as −log10 of the molar value.

Looking up `CNc1ncc2cc(-c3cc(F)ccc3F)c(=O)n(CCCCN)c2n1` , I found its pIC50 recorded as 4.65

----------
What ΔTm was measured for each of the following?
Biological target: Serine/threonine-protein kinase 4 (Homo sapiens) (UniProt Q13043)
Sequence (Q13043 whole entry): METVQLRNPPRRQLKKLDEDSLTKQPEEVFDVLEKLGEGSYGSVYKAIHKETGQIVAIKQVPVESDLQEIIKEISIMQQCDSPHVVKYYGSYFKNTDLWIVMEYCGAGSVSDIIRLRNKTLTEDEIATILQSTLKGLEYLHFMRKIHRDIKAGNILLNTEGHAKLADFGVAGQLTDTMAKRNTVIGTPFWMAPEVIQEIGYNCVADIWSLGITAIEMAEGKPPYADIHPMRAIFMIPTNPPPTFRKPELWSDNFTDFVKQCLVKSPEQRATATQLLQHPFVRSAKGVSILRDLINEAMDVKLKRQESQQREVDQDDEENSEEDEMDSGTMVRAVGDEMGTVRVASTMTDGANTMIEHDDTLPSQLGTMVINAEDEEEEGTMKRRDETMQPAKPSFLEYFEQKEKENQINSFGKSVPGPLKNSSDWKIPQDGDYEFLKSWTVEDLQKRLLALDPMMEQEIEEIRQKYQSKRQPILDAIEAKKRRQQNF
Test: Binding affinity to recombinant MST1 (unknown origin) assessed as stabilization by measuring change in melting temperature at 10 uM by SYPRO orange dye based differential scanning fluorimetry assay
Remember to quote the unit after the number.

Example entries and their recorded answers appear below.
CNc1ncc2cc(-c3cc(Br)ccc3Br)c(=O)n(CCCCN)c2n1 :: 1.6 °C
CNc1ncc2cc(-c3ccccc3Cl)c(=O)n(CCCCN)c2n1 :: 1.9 °C

Proceeding to the next compound to report its ΔTm.
Looking up `CNc1ncc2cc(-c3cc(C(F)(F)F)ccc3Cl)c(=O)n(CCCCN)c2n1` , I found its ΔTm recorded as 0.9 °C

----------
What ΔTm was measured for each of the following?
Biological target: Serine/threonine-protein kinase PAK 1 (Homo sapiens)
Experiment: Binding affinity to recombinant PAK1 (unknown origin) assessed as stabilization by measuring change in melting temperature at 10 uM by SYPRO orange dye based differential scanning fluorimetry assay
Answers are plain numbers, in °C.

Example entries and their recorded answers appear below.
CNc1ncc2cc(-c3cc(F)ccc3F)c(=O)n(CCCCN)c2n1 :: 0
CNc1ncc2cc(-c3cc(Cl)ccc3Br)c(=O)n(CCCCN)c2n1 :: 0.6
CNc1ncc2cc(-c3cc(C(F)(F)F)ccc3Cl)c(=O)n(CCCCN)c2n1 :: 0.2

Quick one: give me ΔTm for each item below, same order please.
1. CNc1ncc2cc(-c3ccccc3Cl)c(=O)n(CCCCN)c2n1
2. CNc1ncc2cc(-c3ccc(-c4ncccc4F)cc3Cl)c(=O)n(C[C@H]3OC[C@H](N)CO3)c2n1
3. CNc1ncc2cc(-c3cc(Br)ccc3Br)c(=O)n(CCCCN)c2n1
4. CNc1ncc2cc(-c3cc(Br)ccc3Cl)c(=O)n(CCCCN)c2n1
5. CN[C@@H]1C[C@H]2O[C@@](C)([C@@H]1OC)n1c3ccccc3c3c4c(c5c6ccccc6n2c5c31)C(=O)NC4

Response given:
1.1
5.2
0.7
0
6.7

----------
Target: Serine/threonine-protein kinase 26 (Homo sapiens)
Assay: Binding affinity to recombinant MST4 (unknown origin) assessed as stabilization by measuring change in melting temperature at 10 uM by SYPRO orange dye based differential scanning fluorimetry assay
What ΔTm was measured for each of the following?
Give bare numbers, in °C.

Example entries and their recorded answers appear below.
CNc1ncc2cc(-c3cc(Br)ccc3Br)c(=O)n(CCCCN)c2n1 :: 1.5
CNc1ncc2cc(-c3cc(Br)ccc3Cl)c(=O)n(C[C@H]3OC[C@H](N)CO3)c2n1 :: 0.6

Proceeding to the next molecule to report its ΔTm.
Response field ΔTm (Serine/threonine-protein kinase 26 (Homo sapiens)) for item `CNc1ncc2cc(-c3cc(Cl)ccc3Cl)c(=O)n(CCCCN)c2n1` : 2
